Sourced from paper PMC9352680

Recorded Kd for the following binders
# targetSystem: T1, PUF4 RNA-binding domain (Saccharomyces cerevisiae, UniProt P25339 537-888)
# T1 sequence: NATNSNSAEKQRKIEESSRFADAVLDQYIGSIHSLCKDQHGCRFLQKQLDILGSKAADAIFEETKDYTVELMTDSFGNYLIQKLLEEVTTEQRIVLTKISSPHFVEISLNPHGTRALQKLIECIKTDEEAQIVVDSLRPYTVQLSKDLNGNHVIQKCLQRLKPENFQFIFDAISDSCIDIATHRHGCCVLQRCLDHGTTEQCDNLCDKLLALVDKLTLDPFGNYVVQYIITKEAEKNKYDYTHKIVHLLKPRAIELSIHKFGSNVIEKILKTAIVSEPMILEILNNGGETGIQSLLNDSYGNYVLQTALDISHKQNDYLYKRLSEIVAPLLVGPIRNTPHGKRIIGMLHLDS
# assayDetails: Mg; RNA-MaP; 20 mM Na-HEPES pH 7.4, 30 mM KOAc, 0.75 mM MgCl2, 0.1% Tween-20, 5% glycerol, 0.1 mg/mL BSA, 2 mM DTT; 25 C; 0.0125-409.6 nM protein
# assayContext: tags: N-His6-TEV cleaved; C-SNAP kept, Cy3B-labelled; label: tethered on chip by stalled RNA polymerase
Note: unit nM is implicit; provide only the numeric part.

stdin: Retrieve Kd measured for Ic_S2_P4E.1_K4.1_C4.1_H4.1_A4.1_[T5G]_[A6T]_[T7A]_F4.1_T4.1 (ssRNA) RNA: UUUGAUUAAUAUGAUAUCGUUCUUUCUUGUAGUAUAUUCUUUCUCGAUAUCAUAUUAAUCUUU and print it.
stdout: 2.26

stdin: Using the record for UCUCUUUAUAUAUAUACGUCUCUU (ssRNA) [Id_ii_S1_P3E.3_K3.2_C3.2_[C-2T]_[T-1A]_H3.2_A3.1_F3.1_T3.2_[T9C]_[A10G]] , state its measured Kd.
stdout: 503

stdin: Return reported Kd. Input binder: Ib_S4_P5E.1_K5.1_C5.1_H5.1_A5.1_F5.1_[T8G]_[A10T]_T5.1 (ssRNA) RNA: UUUGACAACUGAUCGUUCUUUCUUGUAUUAGUUUUCUUUCUCGAUCAGUUGUCUUU
stdout: 393

stdin: Please supply the value of reported Kd for the item UCUCUUUGUACUAUUUUCUCUU (ssRNA) [Ib_S1_P5E.1_K5.1_C5.1_H5.1_A5.1_[T5C]_F5.1_[A10T]_T5.1]
stdout: 10.2

stdin: // Input: Ic_S4_P4E.1_K4.1_C4.1_H4.1_A4.1_[T5A]_[A6C]_[T7C]_F4.1_[A9G]_T4.1 (ssRNA) RNA: UUUGACAACUGAUCGUUCUUUCUUGUAACCUGUUCUUUCUCGAUCAGUUGUCUUU . Output its Kd only.
stdout: 44.1

stdin: Identify the reported Kd for the following entry. Ic_S4_P4E.1_K4.1_C4.1_H4.1_A4.1_[T5G]_[A6C]_[T7C]_F4.1_[T8A]_[A9T]_T4.1 (ssRNA) RNA: UUUGACAACUGAUCGUUCUUUCUUGUAGCCAUUUCUUUCUCGAUCAGUUGUCUUU
stdout: 428
